# Tested on: P388 leukemia ip, CD2F1 mice, survival T/C
# measurement-notes: NCI In Vivo Anticancer Drug Screen. Data for tumor model P388 Leukemia (intraperitoneal) in CD2F1 (CDF1) mice
# experimental-parameters: endpoint: median survival time; dose: 400.0 mg/kg/injection; schedule: Q04DX003 (ip); vehicle: Klucel (hydroxypropylcellulose) (HPC); higher = longer survival
Toxic doses and inconclusive results are not listed.
Please go through the items and note down their T/C.

Consider the following items and state reported T/C for each.
1. Nc1nnc(-c2ccc(Cl)c(Cl)c2)o1
2. O=C1OCCOCCSCCOCCOC(=O)c2cccc1n2
3. Cc1[nH]c(-c2ccccc2)c2[nH]c(=O)n(-c3ccccc3)c(=O)c12
4. CCOP(O)(=S)OCC.[Ce]
5. Cc1ccc(S(=O)(=O)OCC(C)(C)C)cc1
6. CCOC(=O)c1c(Nc2ccccc2O)oc2ccccc12
7. COC(=O)C1C2C=CC(C1C(=O)OC)N(/C=C/c1ccccc1)C2=O (configuration not stated)

["115 % of control", "100 % of control", "93 % of control", "93 % of control", "96 % of control", "95 % of control", "97 % of control"]

---

# Tested on: P388 leukemia ip, CD2F1 mice, survival T/C
# measurement-notes: NCI In Vivo Anticancer Drug Screen. Data for tumor model P388 Leukemia (intraperitoneal) in CD2F1 (CDF1) mice
# experimental-parameters: endpoint: median survival time; dose: 7.5 mg/kg/injection; schedule: Q01DX005 (ip); vehicle: saline with Tween-80; higher = longer survival
Inconclusive results and toxic doses are left out.
Please go through the items and note down their T/C.

Check out these entries, answers already filled in.
CC(=O)c1ccc(NC(=O)C#N)cc1: 104 % of control
Cn1nc(C(N)=O)c2c(N)ncnc21: 91 % of control
COC1=C(OC)C(=O)C(COC2CCCCO2)=CC1=O (stereo not given): 98 % of control
CCOc1c(Cc2ccccc2)c(=O)n2c3ccccc3n(CC)c2c1C#N: 100 % of control

Now let's try a different one.
Which T/C value is on record for `Cc1ccc(NC(=O)/C(Cl)=C(\Cl)C(=O)O)cc1C` ? 102 % of control

---

# Test system: P388 leukemia ip, CD2F1 mice, survival T/C
# measurement-notes: NCI In Vivo Anticancer Drug Screen. Data for tumor model P388 Leukemia (intraperitoneal) in CD2F1 (CDF1) mice
# experimental-parameters: endpoint: median survival time; dose: 120.0 mg/kg/injection; schedule: Q01DX005 (ip); vehicle: Klucel (hydroxypropylcellulose) (HPC); higher = longer survival
# Procedure: The antitumor activity of compounds was measured in mice bearing transplantable tumors. Survival or tumor size were measured and the results are expressed as the measurement made in the treated group (T) divided by the measurement made in the vehicle treated control group (C). The tumor model used in this assay is P388 Leukemia (intraperitoneal) in CD2F1 (CDF1) mice
Toxic doses and inconclusive results are not listed. Peptide text beside a SMILES is read from it. * marks the point of attachment. Trt = c1ccc(C(c2ccccc2)(c2ccccc2)*)cc1; Cbz = O=C(OCc1ccccc1)*; Bz = O=C(c1ccccc1)*
measured-quantity: T/C

Check out these entries, answers already filled in.
CC(C)(C)C(=O)OCn1cc2c(=O)[nH]cnc2n1: 100 % of control
O=C(O)c1cnc2c(C(F)(F)F)cccc2c1Nc1ccc2c(c1)OCO2: 101 % of control
O=C1CSC(c2ccco2)N1c1nncs1 (configuration not stated): 103 % of control

Consider the following items and state reported T/C for each.
1. NC(CSCc1ccccc1)P(=O)(O)O (configuration not stated)
2. CSc1nsc(SC)c1C(N)=O

1. 98 % of control
2. 98 % of control

Consider the following items and state reported T/C for each.
1. CN1CCN(Cc2ccc(Nc3ccccc3)cc2)CC1
2. CCOC(=O)C(CC)/C(C)=N\NC(N)=S (configuration not stated)
3. CC1=CC(O)(c2ccccn2)P(=O)(c2ccccc2)C=C1C (configuration not stated)
4. COC1(OC)C(c2ccc(Cl)cc2)C(C#N)(C#N)C1(OC)OC (configuration not stated)
5. Nc1ccccc1S(=O)(=O)Nc1c(N)[nH]c(=S)[nH]c1=O
6. BrC1=CC(Br)=C2N=C(N3CCCC3)N=C3N=C(C(Br)(Br)Br)N=C1N32
7. NC(CC1C=CCCC1)C(=O)O (configuration not stated)

1. 108 % of control
2. 101 % of control
3. 111 % of control
4. 102 % of control
5. 99 % of control
6. 88 % of control
7. 98 % of control

Consider the following items and state reported T/C for each.
1. O=c1[nH]c2ccccc2c(N=Cc2ccccc2)c1-c1ccccc1
2. O=S(=O)(CS(=O)(=O)c1ccc(Br)cc1)c1ccc(Br)cc1
3. N#CC1=C(N)OC(C2CC2)=C(C#N)C1c1ccco1 (configuration not stated)
4. CN(C)c1ccc(C=C2C(=O)N(c3ccccc3)C(=S)N(c3ccccc3)C2=O)cc1
5. O=C1CSC(c2ccccc2)N1c1nncs1 (configuration not stated)

["93 % of control", "107 % of control", "88 % of control", "92 % of control", "101 % of control"]

Consider the following items and state reported T/C for each.
1. Cc1ccc2nc3sc(=O)sc3nc2c1
2. COC(=O)C1CC(C(=O)OC)c2nc3ccccc3nc21 (configuration not stated)
3. COC(=O)C(CSC(=O)c1ccccc1)NC(=O)CNC(=O)CNC(=O)C(CCCCNC(=O)OCc1ccccc1)NC(=O)CNC(=O)C(CSC(c1ccccc1)(c1ccccc1)c1ccccc1)NC(=O)OCc1ccccc1 (configuration not stated) (Cbz-C(Trt)GK(Cbz)GGC(Bz)-OMe; configuration not given here)
4. COCCN(CCOC)C1C2=C(CCCC2)OS(=O)(=O)C1c1ccccc1 (configuration not stated)
5. Nc1nc(-c2ccc3ccccc3c2)cc(-c2cc(-c3ccc4ccccc4c3)nc(N)n2)n1

1: 107 % of control; 2: 98 % of control; 3: 97 % of control; 4: 105 % of control; 5: 93 % of control

---

# Test system: P388 leukemia ip, CD2F1 mice, survival T/C
# measurement-notes: NCI In Vivo Anticancer Drug Screen. Data for tumor model P388 Leukemia (intraperitoneal) in CD2F1 (CDF1) mice
# experimental-parameters: endpoint: median survival time; dose: 50.0 mg/kg/injection; schedule: Q01DX005 (ip); vehicle: Klucel (hydroxypropylcellulose) (HPC); higher = longer survival
Toxic doses and inconclusive results are not listed.
measured-quantity: T/C

Check out these entries, answers already filled in.
COc1c2c(c3c(c1CCC(=O)O)OC(C)(C)C=C3)OC(C)(C)C=C2: 102 % of control
CNc1nc2c(C)ccc3[nH]c(N(C)C)nc3c-2n1: 99 % of control
O=C(N=Nc1c(Cl)c(O)c2ccccc2c1O)C(=O)Nc1cccc(C(F)(F)F)c1: 98 % of control
CN(CCC#N)c1ccc(/C=C(\C#N)c2cccc(C(F)(F)F)c2)cc1: 105 % of control
O=C1OC(c2ccccc2)=N/C1=C/c1c(-c2ccccc2)c(-c2ccccc2)c2n1CCC2: 86 % of control

Now let's try a different one.
Recall the recorded T/C for `NC(=O)c1cncc(C(=O)O)c1` with P388 leukemia ip, CD2F1 mice, survival T/C and state it. 106 % of control

---

Please go through the items and note down their T/C.
# Tested on: P388 leukemia ip, CD2F1 mice, survival T/C
# measurement-notes: NCI In Vivo Anticancer Drug Screen. Data for tumor model P388 Leukemia (intraperitoneal) in CD2F1 (CDF1) mice
# experimental-parameters: endpoint: median survival time; dose: 200.0 mg/kg/injection; schedule: Q04DX003 (ip); vehicle: saline; higher = longer survival
Toxic doses and inconclusive results are not listed.

Check out these entries, answers already filled in.
Cc1nc2n[nH]c(N)c2nc1C: 104 % of control
O=c1oc2c(O)c(O)cc3c(=O)oc4c(O)c(O)cc1c4c23: 112 % of control
COc1nc(Nc2ccc(/C=C/c3ccc(Nc4nc(OC)nc(N(CCO)CCO)n4)cc3S(=O)(=O)O)c(S(=O)(=O)O)c2)nc(N(CCO)CCO)n1: 98 % of control
N#CCCN(C(=S)Nc1ccc(F)cc1)N1CCCCCC1: 107 % of control
CCCC(O)CN (configuration not stated): 107 % of control
NC(=O)NNC(=O)NNC(N)=O: 96 % of control
Cc1cc2c3ccccc3[nH]c(=O)n2n1: 105 % of control
COCCOC(C)C(=O)C(O)S(=O)(=O)O (configuration not stated): 100 % of control

Consider the following items and state reported T/C for each.
1. O=S(=O)(Nc1ccc(NS(=O)(=O)c2ccccc2)cc1)c1ccccc1
2. CC1=C2CC3CCC(C)C2(CC1)C3(C)C (configuration not stated)
3. CC1=NN(C)C(=O)C1
4. O=C1NC(=O)C(C23CCN(CC2)CC3)N1 (configuration not stated)

["100 % of control", "95 % of control", "104 % of control", "100 % of control"]
